Note to self: these compounds have IC50 reported for PIK3CA (human) in various publications.

O=c1cc(Oc2ccccc2)c2cc(Br)ccc2[nH]1
> 10000 nM
CCCS(=O)(=O)Nc1cccc(C(=O)c2c[nH]c3ncc(-c4cnc(OC)nc4)cc23)c1F
≤ 10000 nM
CO[C@H]1CCN(C(=O)c2cnc3ccc(-c4ccc5oc(N)nc5c4)cn23)C1
< 100 nM

Identify the measured IC50 of Cc1ccccc1-n1c(Cn2nc(-c3ccc(Cl)cc3)c3c(N)ncnc32)cc2cccc(C)c2c1=O for PIK3CA (human).
> 10000 nM

Lab note: need IC50 with PIK3CA (human) for entry CC(C)n1ccc2c(N3CCOCC3)nc(-c3ccc(NC(=O)Nc4ccc(N5CCN(C)CC5)cc4)cc3)nc21 , please look it up.
47 nM

---

pIC50: −log10 of the molar value.
pIC50 values for PIK3CA (human) (UniProt P42336), compiled from several publications.

COC1CN(C(=O)c2cnc3ccc(-c4ccc5oc(N)nc5c4)cn23)C1
> 7.00
CC(C)Cn1c(N2CCN(C(=O)C[C@@H](C)O)[C@@H](C)C2)nc2c(N3CCOCC3)nc(-c3cnc(N)nc3)nc21
7.70 to 8.00
CNC(=O)c1ccc(-c2cnc3c(N4CCOCC4)nc(-c4cnc(N)nc4)nc3c2)cc1
> 7.30

Now turn to the next molecule.
Could you share what pIC50 was measured for Nc1nc2cc(-c3ccc4ncn(C5CCOCC5)c4c3)ccc2o1 , tested on PIK3CA (human) (UniProt P42336)?
> 5.00

---

Several reports have described pIC50 for UniProt P42336; a selection of those results is presented here.
pIC50: −log10 of the molar value.

Examples with answers:
CNc1nc2cc(-c3nc(N4CCOCC4)c4ccn(CC(F)(F)F)c4n3)ccc2[nH]1
5.92
C[C@H](Nc1ncnc2ccccc12)c1cc2cccc(Cl)c2c(C(=O)N2CCOCC2)n1
> 5.00
C[C@H](NC(=O)c1c(N)nn2cccnc12)c1cc2cccc(-c3ccc(=O)n(C)c3)c2c(=O)n1-c1ccccc1
< 5.00
Cc1ccccc1-n1c(Cn2nc(C#C[C@H](C)O)c3c(N)ncnc32)cc2cccc(C)c2c1=O
< 5.00
C[C@H](NC(=O)c1cncc2cccnc12)c1cc2cccc(Cl)c2c(=O)n1-c1ccccc1
< 5.00
CN1CCN(C(=O)c2ccc(NC(=O)Nc3ccc(-c4nc(N5CCOCC5)c5ccn(CC(F)(F)F)c5n4)cc3)cc2)CC1
8.72
Cc1cc(-c2ccc3nc(N)oc3c2)cn2c(CCN3CCN(C)CC3)nnc12
< 5.00
CN(C)C(=O)CN1CCC(n2nnc3cnc4ccc(-c5cnc(N)c(C(F)(F)F)c5)nc4c32)CC1
> 7.00

For UniProt P42336, provide pIC50 of NC(=O)Nc1cccc(Cn2ccc3c(N4CCOCC4)nc(-c4ccc(NC(=O)Nc5ccncc5)cc4)nc32)c1 please.
7.21

Fill in the recorded pIC50 for this compound, with UniProt P42336 as test system: Nc1ncc(-c2nc(N3CCOCC3)c3ncc(-c4cccc(NC(=O)c5ccc(F)cc5)c4)cc3n2)cn1
> 7.30

Look up pIC50 with UniProt P42336 for this compound: C[C@H](Nc1ncnc2cccnc12)c1cc2cccc(Cl)c2c(C(=O)N2CCCOCC2)n1
> 5.00

---

pIC50: −log10 of the molar value.
Reported pIC50 against PIK3CA (human), gathered from multiple publications, appears below.

CC(=O)Nc1nc2cc(-c3nn(Cc4cc5cccc(C)c5c(=O)n4-c4ccccc4)c4ncnc(N)c34)ccc2s1
< 5.00

Identify the measured pIC50 of C[C@H](NC(=O)c1c(N)nn2cccnc12)c1cc2cccc(C#CCCN)c2c(=O)n1-c1ccccc1 for PIK3CA (human).
5.00 to 6.00

Write down the reported pIC50 of Cn1cc(/C=C2\Oc3ccc(NC(=O)Nc4cccnc4)cc3C2=O)c2c(N3CCC(C(=O)N4CC5CC4CN5)CC3)ccnc21 (stereo not shown) , test system: PIK3CA (human).
5.20

Query the reported pIC50 for PIK3CA (human); item: C[C@H](Nc1ncnc2[nH]cnc12)c1cc2cccc(Cl)c2c(C(=O)NC2CCC(O)CC2)n1 (stereo partly shown)
< 5.00

# get_value(readout= pIC50, system= PIK3CA (human)) for CN1CC(C(=O)N2CCC(Nc3ncnc4ccc(-c5ccc6oc(N)nc6c5)cc34)CC2)C1
> 7.00

Value wanted: pIC50 (PIK3CA (human)) of entry COc1ncc(-c2ccc3nccc(-n4cncn4)c3c2)cc1NS(=O)(=O)c1ccc(F)cc1F
9.26

Form: Entry = COc1ccc(-c2ccc3ncc4nnn(C5CCN(C(=O)[C@H](C)O)CC5)c4c3n2)cn1 | System = PIK3CA (human) | pIC50 = ____
> 7.00

---

Here is a set of compounds with reported pIC50 for UniProt:P42336, compiled from the literature.
pIC50: −log10 of the molar value.

In the examples that follow, each entry is paired with its recorded pIC50.
CC(C)(C#N)c1ccc(-n2nnc3cnc4ccc(-c5cnc(N)c(C(F)(F)F)c5)nc4c32)cc1
> 7.00
Cc1nc2ccc(-c3ccc4c(c3)CN(C(=O)N(C)CCc3ccccc3)CCO4)cc2[nH]1
5.52 to 6.00
Cc1nc2cnc3ccc(-c4cnc(N)c(C(F)(F)F)c4)nc3c2n1C1CCN(C(=O)c2ccccn2)CC1
> 7.00
Nc1nc2cc(-c3ccc4ncn(CCCN5CCCC5)c(=O)c4c3)ccc2o1
> 6.00
Nc1ncc(-c2nc(N3CCOCC3)c3ncc(-c4cccc(NC(=O)C5CCCC5)c4)cc3n2)cn1
> 7.30

I am curious: what pIC50 value has been reported for Cc1cccc2cc([C@H](C)Nc3cc(N)nc(Cl)n3)n(C3CC3)c(=O)c12 ?
< 5.00

Sample COCc1nn(Cc2cc3cccc(C)c3c(=O)n2-c2ccccc2C)c2ncnc(N)c12 — what was its pIC50?
< 5.00

# input compound: C[C@H](Nc1ncnc2[nH]cc(C(N)=O)c12)c1cc2cccc(Cl)c2c(C(=O)N2CCOCC2)n1 ; wanted: its pIC50
> 5.00

---

Let's look at some IC50 data for PIK3CA (human) that I collected from the literature.
METRIC: IC50 (nM)

1: c1cc2ncc(-c3nc4c(N5CCOCC5)nc(N5CCOCC5)nc4[nH]3)cc2[nH]1
2: Cc1ccc(Oc2cc(=O)[nH]c3ccccc23)cc1
3: COc1ncc(-c2cc(O[C@H]3CCOC3)c3nc(N)nc(C)c3c2)cc1NS(C)(=O)=O
List the 3 compounds shown above, ordered by increasing IC50. Response format: the labels, sorted as the prompt asks.
3, 1, 2

---

Multiple publications report IC50 for PIK3CA (human); what follows is a combined list.
METRIC: IC50 (µM)

O=c1cc(Oc2ccc(-c3ccc(F)cc3)cc2)c2ccccc2[nH]1
9.66

P: COCCN[C@H]1CC[C@H](CNc2cc(-n3c(C(F)F)nc4ccccc43)nc(N3CCOCC3)n2)CC1
Q: CN(Cc1cccnc1)C(=O)C1CCN(c2ccnc3c2c(/C=C2\Oc4ccc(NC(=O)Nc5cccnc5)cc4C2=O)cn3C)CC1
Identify the item whose IC50 is the smaller number: P or Q Let me know the label of the one you choose.
Q
(Q: 1.02 µM, P: 7.6 µM)

---

// compounds with reported pIC50 on PIK3CA (human) (UniProt P42336), multi-publication
pIC50: −log10 of the molar value.

Solved entries (count: 5):
Cc1nc(N)ncc1-c1nc(N2CCOC[C@@H]2C)c2nc(-c3cccc(NS(=O)(=O)c4cc(F)ccc4F)c3F)ccc2n1
7.00 to 9.00
CCn1ccc2c(N3CCOCC3)nc(-c3ccc(NC(=O)Nc4ccc(C(=O)NCCN(C)C)cc4)cc3)nc21
> 8.62
CC(=O)N1CCN(c2nc3c(N4CCOCC4)nc(-c4cnc(N)nc4)nc3n2CC2CC2)CC1
> 8.00
Cc1cccc2cc([C@H](C)Nc3ncnc4[nH]cc(F)c34)n(-c3ccccc3)c(=O)c12
> 5.00
COc1ncc(-c2cnc3[nH]cc(C(=O)c4c(F)ccc(NS(=O)(=O)c5ncn[nH]5)c4F)c3c2)cn1
≥ 5.00

Field: next compound
Please provide the recorded pIC50 for Nc1nc2cc(-c3cn4c(-c5cn[nH]c5)cnc4cn3)ccc2o1 , tested on PIK3CA (human) (UniProt P42336).
> 6.00

---

Record: compiled pIC50 on PIK3CA (human) (UniProt P42336) from multiple reports.
pIC50: −log10 of the molar value.

CC1(O)CCN(C(=O)N2CCOc3ccc(-c4ccc5nc(N)[nH]c5c4)cc3C2)CC1
6.70 to 7.12
CC(C)n1c(N2CCN(S(C)(=O)=O)CC2)nc2c(N3CCOCC3)nc(-c3cnc(N)nc3)nc21
7.30 to 7.70
CC1CN(C(=O)C2CCN(c3ccnc4c3c(/C=C3\Oc5ccc(NC(=O)Nc6cccnc6)cc5C3=O)cn4C)CC2)CC(C)O1 (stereo not shown)
5.43
CC(C)(C#N)C(=O)N1CCN(c2cccc(-c3cnc4c(N5CCOCC5)nc(-c5cnc(N)nc5)nc4c3)c2)CC1
> 7.30

Missing value: pIC50, PIK3CA (human) (UniProt P42336), entry CC(C)(C#N)c1ccc(-c2n[nH]c3cnc4ccc(-c5ccn6ncnc6c5)cc4c23)cc1 . Fill in?
< 7.70

Lab note: need pIC50 with PIK3CA (human) (UniProt P42336) for entry CCNC(=O)N1CCC(n2nnc3cnc4ccc(-c5cnc(N)c(C(F)(F)F)c5)nc4c32)CC1 , please look it up.
> 7.00

Field: pIC50 (PIK3CA (human) (UniProt P42336)). Entry: CCN(CC)c1ncc2c(n1)-c1sc(NC(=O)N3CCC[C@@]3(COC)C(N)=O)nc1CC2
8.26

Enter reported pIC50 observed with PIK3CA (human) (UniProt P42336) for COc1cccc(-c2nc(Oc3ccc(NC(C)=O)cc3)c3cnn(C)c3n2)c1
6.59

Fill in the recorded pIC50 for this compound, with PIK3CA (human) (UniProt P42336) as test system: Nc1nc2cc(-c3ccc4ncn(C5CCNCC5)c(=O)c4c3)ccc2o1
> 7.00

Form: Entry = COc1ncc(-c2ccc3nccc(N4CCCC4)c3c2)cc1NS(=O)(=O)c1ccc(F)cc1F | System = PIK3CA (human) (UniProt P42336) | pIC50 = ____
< 7.00

Requested read-out pIC50, target or system PIK3CA (human) (UniProt P42336), entry COCC(=O)N1CCC(n2nnc3cnc4ccc(-c5cnc(N)c(C(F)(F)F)c5)nc4c32)CC1
> 7.00

What reported pIC50 corresponds to C[C@H]1COCCN1c1nc(-c2cnc(N)nc2)nc2c1nc(N1CCN(S(C)(=O)=O)CC1)n2CC(F)(F)F on PIK3CA (human) (UniProt P42336)?
> 8.00

Under PIK3CA (human) (UniProt P42336): pIC50 value of c1cc(-c2ccnc3ccc(-c4ccc5[nH]ncc5c4)cc23)ccn1 ?
7.10
